Biological target: human IL-23R (Homo sapiens)
Test: biochemical
*1 amine or outer side, *2 acyl side, *3 side chain or, on linkers, in order; H or OH if unused. Where a SMILES comes first, the peptide text is derived from it. Bridges are numbered along the chain shown (N, C = ends). [ ]: non-standard residue; d: D form. hAad = O=C([C@H](CCCCC(=O)[*:3])N[*:1])[*:2]; X14 = O=C(CC[C@H](N[*:2])C(=O)[*:3])[*:1]; X17 = O=C(C[C@@H](CCCN[*:3])N[*:2])[*:1]; 2Nal = N[C@@H](Cc1ccc2ccccc2c1)C(=O)O; AEF = NCCOc1ccc(C[C@H](N)C(=O)O)cc1; 3Pal = N[C@@H](Cc1cccnc1)C(=O)O; αMeL = CC(C)C[C@](C)(N)C(=O)O; dDab = NCC[C@@H](N)C(=O)O; Dab = NCC[C@H](N)C(=O)O
Known IC50 of a selection of compounds
Answer in nM, number only, no unit symbol.

COc1ccc(C[C@@H]2NC(=O)[C@@H]3CCC(=O)N[C@@H](CCCCNC(=O)CC[C@@H](C(=O)N[C@@H](CCCCNC(=O)CCc4ccncc4)C(N)=O)NC(=O)[C@](C)(CC(C)C)NC(=O)[C@H](Cc4ccc5ccccc5c4)NC2=O)C(=O)N[C@@H]([C@@H](C)O)C(=O)N[C@@H](C(C)C)C(=O)N[C@@H](Cc2c[nH]c4ccccc24)C(=O)N[C@@H](CCC(N)=O)C(=O)N3)cc1 [Compound 55]
140
CNC(=O)[C@H](Cc1cccnc1)NC(=O)[C@H](CCN)NC(=O)[C@@H]1CCC(=O)NCCCC[C@@H]2NC(=O)CC[C@H](NC(=O)[C@H](CCC(N)=O)NC(=O)[C@H](Cc3c[nH]c4ccccc34)NC(=O)[C@H]([C@@H](C)O)NC2=O)C(=O)N[C@@H](Cc2ccc(OCCN)cc2)C(=O)N[C@@H](Cc2ccc3ccccc3c2)C(=O)N[C@@](C)(CC(C)C)C(=O)N1 [Compound 36] (KTWQE[AEF][2Nal][αMeL]E[Dab][3Pal]-NHMe; lactam 1-9, N-5)
0.29
CC(C)C[C@]1(C)NC(=O)[C@H](Cc2ccc3ccccc3c2)NC(=O)[C@H](Cc2ccc(OCCN)cc2)NC(=O)[C@@H]2CCC(=O)N[C@H](CCNC(=O)CCCC[C@@H](C(=O)N[C@@H](CCN)C(=O)N[C@@H](Cc3cccnc3)C(N)=O)NC1=O)C(=O)N[C@@H]([C@@H](C)O)C(=O)N[C@@H](C(C)C)C(=O)N[C@@H](Cc1c[nH]c3ccccc13)C(=O)N[C@@H](CCC(N)=O)C(=O)N2 [Compound 7] ([dDab]TVWQE[AEF][2Nal][αMeL][hAad][Dab][3Pal]-NH2; lactam 1-10, N-6)
0.017
CNC(=O)[C@H](Cc1cccnc1)NC(=O)[C@H](Cc1cnc[nH]1)NC(=O)[C@@H]1CCC(=O)NCCCC[C@@H]2NC(=O)CC[C@H](NC(=O)[C@H](CCC(N)=O)NC(=O)[C@H](Cc3c[nH]c4ccccc34)NC(=O)CCNC2=O)C(=O)N[C@@H](Cc2ccc(OCCN)cc2)C(=O)N[C@@H](Cc2ccc3ccccc3c2)C(=O)N[C@@](C)(CC(C)C)C(=O)N1 [Compound 86]
0.049
COc1ccc(C[C@@H]2NC(=O)[C@@H]3CCC(=O)N[C@@H](CCCCNC(=O)CC[C@@H](C(=O)N[C@@H](CCCCNC(=O)CCc4ccccn4)C(N)=O)NC(=O)[C@](C)(CC(C)C)NC(=O)[C@H](Cc4ccc5ccccc5c4)NC2=O)C(=O)N[C@@H]([C@@H](C)O)C(=O)N[C@@H](C(C)C)C(=O)N[C@@H](Cc2c[nH]c4ccccc24)C(=O)N[C@@H](CCC(N)=O)C(=O)N3)cc1 [Compound 49]
820

Q: I'm curious: which IC50 was measured for CNC(=O)[C@H](Cc1cccnc1)NC(=O)[C@H](CCN)NC(=O)[C@@H]1CCC(=O)NCCC[C@@H]2NC(=O)CC[C@H](NC(=O)[C@H](CCC(N)=O)NC(=O)[C@H](Cc3c[nH]c4ccccc34)NC(=O)CNC2=O)C(=O)N[C@@H](Cc2ccc(OCCN)cc2)C(=O)N[C@@H](Cc2ccc3ccccc3c2)C(=O)N[C@@](C)(CC(C)C)C(=O)N1 [Compound 90] tested on human IL-23R (Homo sapiens)?
A: 6.4

Q: I'm curious: which IC50 was measured for CNC(=O)[C@H](Cc1cccnc1)NC(=O)[C@H](CCN)NC(=O)[C@@H]1CCCCNC(=O)[C@@H]2CCC(=O)N[C@@H](Cc3c[nH]c4ccccc34)C(=O)N[C@@H](CCC(N)=O)C(=O)N[C@@H](CCC(=O)N2)C(=O)N[C@@H](Cc2ccc(OCCN)cc2)C(=O)N[C@@H](Cc2ccc3ccccc3c2)C(=O)N[C@@](C)(CC(C)C)C(=O)N1 [Compound 106] (WQE[AEF][2Nal][αMeL]K[Dab][3Pal]-NHMe; linker N-3-7 via X14) tested on human IL-23R (Homo sapiens)?
A: 2.5

Q: I'm curious: which IC50 was measured for CC(C)C[C@]1(C)NC(=O)[C@H](Cc2ccc3ccccc3c2)NC(=O)[C@H](Cc2ccc(OCCN)cc2)NC(=O)[C@@H]2CCC(=O)N[C@H](CCCNC(=O)CC[C@@H](C(=O)N[C@@H](CCN)C(=O)N[C@@H](Cc3cccnc3)C(N)=O)NC1=O)CC(=O)N[C@@H]([C@@H](C)O)C(=O)N[C@@H](Cc1c[nH]c3ccccc13)C(=O)N[C@@H](CCC(N)=O)C(=O)N2 [Compound 14] (TWQE[AEF][2Nal][αMeL]E[Dab][3Pal]-NH2; linker N-4-8 via X17) tested on human IL-23R (Homo sapiens)?
A: 0.44

Q: I'm curious: which IC50 was measured for COc1ccc(C[C@@H]2NC(=O)[C@@H]3CCC(=O)N[C@@H](CCCCNC(=O)CC[C@@H](C(=O)N[C@@H](CCCCNC(=O)Cc4cccnc4)C(N)=O)NC(=O)[C@](C)(CC(C)C)NC(=O)[C@H](Cc4ccc5ccccc5c4)NC2=O)C(=O)N[C@@H]([C@@H](C)O)C(=O)N[C@@H](C(C)C)C(=O)N[C@@H](Cc2c[nH]c4ccccc24)C(=O)N[C@@H](CCC(N)=O)C(=O)N3)cc1 [Compound 51] tested on human IL-23R (Homo sapiens)?
A: 300
